Molecular target: D(3) dopamine receptor (Homo sapiens)
Recorded endpoint: IC50

Incoming: Query (molecule): `COc1ccc(OCCN2CCN(C(=O)c3ccc(OC)cc3)CC2)cc1` ; field requested: IC50
Outgoing: 10 to 100 µM

====

I'd be grateful if you could share measured inhibition at […], 10 µM for these entries.
Target: 5HT5A receptor (Homo sapiens)
Sequence (P47898 whole entry): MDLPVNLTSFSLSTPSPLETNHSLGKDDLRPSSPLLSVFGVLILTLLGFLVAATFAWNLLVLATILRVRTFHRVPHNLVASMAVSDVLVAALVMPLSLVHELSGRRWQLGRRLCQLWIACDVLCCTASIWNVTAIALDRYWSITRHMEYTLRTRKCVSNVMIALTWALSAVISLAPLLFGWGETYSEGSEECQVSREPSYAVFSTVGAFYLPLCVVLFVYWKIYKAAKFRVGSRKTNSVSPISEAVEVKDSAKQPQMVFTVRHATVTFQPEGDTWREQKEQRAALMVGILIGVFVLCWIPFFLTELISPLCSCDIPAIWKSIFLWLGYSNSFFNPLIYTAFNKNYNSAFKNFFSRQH
Assay: Displacement of [3H]-LSD from recombinant human 5HT5A receptor stably expressed in Flp-In CHO cell membranes at 10 uM measured after 90 mins by microbeta scintillation counting method relative to control
Settings: probe [3H]-LSD

CCCN[C@H]1CCc2nc(N)sc2C1 [PRAMIPEXOLE]
> 50%

Next, consider the following compound.
Incoming: Query (compound): `CCCN(CC[C@]1(O)C[C@H](NC(=O)c2ccc3ccccc3c2)C1)[C@H]1CCc2nc(N)sc2C1` ; field requested: inhibition at […], 10 µM
Outgoing: < 50%

====

Target: serotonin transporter (SERT) (Homo sapiens, UniProt P31645)
Sequence (P31645 whole entry): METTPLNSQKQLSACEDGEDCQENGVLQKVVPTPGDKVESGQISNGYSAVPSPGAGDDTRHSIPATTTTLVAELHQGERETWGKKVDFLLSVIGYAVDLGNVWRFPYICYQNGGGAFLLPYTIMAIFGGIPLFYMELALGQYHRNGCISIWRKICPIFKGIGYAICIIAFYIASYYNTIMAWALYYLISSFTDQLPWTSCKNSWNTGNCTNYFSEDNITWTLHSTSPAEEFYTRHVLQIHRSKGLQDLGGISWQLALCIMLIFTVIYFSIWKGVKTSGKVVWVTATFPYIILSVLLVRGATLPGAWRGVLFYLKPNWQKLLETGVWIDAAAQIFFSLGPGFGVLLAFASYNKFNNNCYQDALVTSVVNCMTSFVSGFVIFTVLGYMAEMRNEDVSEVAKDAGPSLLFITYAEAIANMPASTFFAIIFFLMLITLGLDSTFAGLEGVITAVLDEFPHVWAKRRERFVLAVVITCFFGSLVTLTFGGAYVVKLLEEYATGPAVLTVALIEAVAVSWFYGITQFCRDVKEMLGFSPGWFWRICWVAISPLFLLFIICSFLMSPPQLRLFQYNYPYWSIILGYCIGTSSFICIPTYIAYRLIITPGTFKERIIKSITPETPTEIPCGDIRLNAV
Assay: Displacement of [3H]-citalopram from human SERT receptor expressed in stable HEK cell membranes at 10 uM after 90 mins by microbeta scintillation counting method relative to control
Conditions: stable HEK cell membranes expressing human SERT, probe [3H]-citalopram
Recorded endpoint: inhibition at […], 10 µM

CCCN(CC[C@]1(O)C[C@H](NC(=O)c2ccc3ccccc3c2)C1)[C@H]1CCc2nc(N)sc2C1
> 50%

Next, consider the following compound.
Incoming: Query (compound): CCCN[C@H]1CCc2nc(N)sc2C1 [PRAMIPEXOLE] ; field requested: inhibition at […], 10 µM
Outgoing: < 50%

====

Molecular target: beta3 adrenergic receptor (Homo sapiens)
Sequence (P13945 whole entry): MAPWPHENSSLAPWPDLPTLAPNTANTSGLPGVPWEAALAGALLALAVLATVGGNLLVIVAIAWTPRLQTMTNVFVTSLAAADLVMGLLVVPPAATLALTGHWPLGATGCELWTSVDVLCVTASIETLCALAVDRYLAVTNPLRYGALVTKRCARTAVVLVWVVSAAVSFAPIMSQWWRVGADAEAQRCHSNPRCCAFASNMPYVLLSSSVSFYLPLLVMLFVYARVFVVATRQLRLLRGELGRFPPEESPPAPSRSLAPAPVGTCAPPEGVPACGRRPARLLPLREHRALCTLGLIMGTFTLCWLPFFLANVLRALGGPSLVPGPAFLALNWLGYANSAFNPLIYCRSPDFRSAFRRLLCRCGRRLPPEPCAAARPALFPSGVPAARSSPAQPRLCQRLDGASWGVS
Experiment: Displacement of [3H]-CGP12177 from recombinant human beta3 adrenergic receptor expressed in HEK Flp-In cell membranes at 10 uM measured after 90 mins by microbeta scintillation counting method relative to control
Settings: probe [3H]-CGP12177
Recorded endpoint: inhibition at […], 10 µM

Provide the reported inhibition at […], 10 µM of each entry below, same order.
1. CCCN(CC[C@]1(O)C[C@H](NC(=O)c2ccc3ccccc3c2)C1)[C@H]1CCc2nc(N)sc2C1
2. CCCN[C@H]1CCc2nc(N)sc2C1 [PRAMIPEXOLE]

Outgoing:
["< 50%", "> 50%"]

====

Biological target: UniProtKB P28222
Sequence (P28222 whole entry): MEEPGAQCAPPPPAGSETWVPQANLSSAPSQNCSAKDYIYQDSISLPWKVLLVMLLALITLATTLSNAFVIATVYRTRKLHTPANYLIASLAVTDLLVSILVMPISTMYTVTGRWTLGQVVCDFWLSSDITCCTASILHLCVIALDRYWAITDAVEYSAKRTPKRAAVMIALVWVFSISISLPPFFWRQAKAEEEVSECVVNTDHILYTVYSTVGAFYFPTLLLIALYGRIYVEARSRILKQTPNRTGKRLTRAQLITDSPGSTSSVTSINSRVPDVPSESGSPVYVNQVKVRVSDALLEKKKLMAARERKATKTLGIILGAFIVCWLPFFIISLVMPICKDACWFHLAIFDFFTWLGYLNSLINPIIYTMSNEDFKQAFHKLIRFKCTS
Assay: Displacement of [3H]5-CT from recombinant human 5HT1B receptor stably expressed in HEK cell membranes at 10 uM measured after 90 mins by microbeta scintillation counting method relative to control
Settings: probe [3H]5-CT
I'd be grateful if you could share measured inhibition at […], 10 µM for these entries.

CCCN(CC[C@]1(O)C[C@H](NC(=O)c2ccc3ccccc3c2)C1)[C@H]1CCc2nc(N)sc2C1
< 50%

Incoming: Query (compound): CCCN[C@H]1CCc2nc(N)sc2C1 [PRAMIPEXOLE] ; field requested: inhibition at […], 10 µM
Outgoing: > 50%

====

Test system: GABA PBR
Assay: Displacement of [3H]-PK11195 from rat brain GABA PBR at 10 uM measured after 90 mins by microbeta scintillation counting method relative to control
Conditions: probe [3H]-PK11195
Recorded endpoint: inhibition at […], 10 µM

Incoming: Please provide the recorded inhibition at […], 10 µM for `CCCN(CC[C@]1(O)C[C@H](NC(=O)c2ccc3ccccc3c2)C1)[C@H]1CCc2nc(N)sc2C1` , tested on GABA PBR.
Outgoing: < 50%

====

Molecular target: UniProtKB P35368
Sequence (P35368 whole entry): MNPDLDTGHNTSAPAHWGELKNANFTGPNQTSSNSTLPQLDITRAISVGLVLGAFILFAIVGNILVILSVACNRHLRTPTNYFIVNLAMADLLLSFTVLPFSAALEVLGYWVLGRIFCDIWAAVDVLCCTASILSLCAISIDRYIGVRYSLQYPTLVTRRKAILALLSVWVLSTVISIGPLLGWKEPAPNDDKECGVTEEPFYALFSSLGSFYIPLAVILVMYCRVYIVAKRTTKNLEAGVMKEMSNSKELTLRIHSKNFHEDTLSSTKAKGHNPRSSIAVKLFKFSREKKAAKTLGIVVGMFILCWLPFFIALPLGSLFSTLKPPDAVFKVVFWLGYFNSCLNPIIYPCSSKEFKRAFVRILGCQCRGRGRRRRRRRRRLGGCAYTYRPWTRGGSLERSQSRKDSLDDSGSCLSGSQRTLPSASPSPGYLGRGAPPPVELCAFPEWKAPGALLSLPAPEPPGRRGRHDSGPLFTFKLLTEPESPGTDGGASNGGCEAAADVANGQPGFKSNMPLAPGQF
Assay: Displacement of [3H]-prazosin from recombinant human alpha1B adrenergic receptor transiently expressed in HEKT cell membranes at 10 uM measured after 90 mins by microbeta scintillation counting method relative to control
Details: probe [3H]-prazosin
Recorded endpoint: inhibition at […], 10 µM

CCCN[C@H]1CCc2nc(N)sc2C1 [PRAMIPEXOLE]
< 50%

Incoming: Query (compound): `CCCN(CC[C@]1(O)C[C@H](NC(=O)c2ccc3ccccc3c2)C1)[C@H]1CCc2nc(N)sc2C1` ; field requested: inhibition at […], 10 µM
Outgoing: > 50%

====

Target: Alpha-1D adrenergic receptor (Homo sapiens, UniProt P25100)
Sequence (P25100 whole entry): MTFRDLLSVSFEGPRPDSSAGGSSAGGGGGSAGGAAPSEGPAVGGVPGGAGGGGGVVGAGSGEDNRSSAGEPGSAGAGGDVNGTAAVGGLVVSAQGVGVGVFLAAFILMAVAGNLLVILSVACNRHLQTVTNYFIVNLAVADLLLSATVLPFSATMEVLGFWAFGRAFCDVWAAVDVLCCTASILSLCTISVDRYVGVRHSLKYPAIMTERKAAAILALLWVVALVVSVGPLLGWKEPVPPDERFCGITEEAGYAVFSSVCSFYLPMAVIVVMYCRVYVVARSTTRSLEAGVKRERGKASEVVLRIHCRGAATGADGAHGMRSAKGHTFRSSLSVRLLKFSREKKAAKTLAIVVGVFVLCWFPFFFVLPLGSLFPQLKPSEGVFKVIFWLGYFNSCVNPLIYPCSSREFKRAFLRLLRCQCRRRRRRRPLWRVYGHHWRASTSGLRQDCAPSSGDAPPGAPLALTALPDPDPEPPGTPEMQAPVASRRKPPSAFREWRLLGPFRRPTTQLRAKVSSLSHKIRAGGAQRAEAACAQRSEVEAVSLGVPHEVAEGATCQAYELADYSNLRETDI
Assay: Displacement of [3H]-prazosin from recombinant human alpha1D adrenergic receptor measured after 90 mins by microbeta scintillation counting method
Details: read-out: Ki
Recorded endpoint: Ki (nM)
One number for each entry, in nM.

Incoming: Query (compound): `CCCN(CC[C@]1(O)C[C@H](NC(=O)c2ccc3ccccc3c2)C1)[C@H]1CCc2nc(N)sc2C1` ; field requested: Ki
Outgoing: 1180

====

Molecular target: D(1B) dopamine receptor (Homo sapiens, UniProt P21918)
Sequence (P21918 whole entry): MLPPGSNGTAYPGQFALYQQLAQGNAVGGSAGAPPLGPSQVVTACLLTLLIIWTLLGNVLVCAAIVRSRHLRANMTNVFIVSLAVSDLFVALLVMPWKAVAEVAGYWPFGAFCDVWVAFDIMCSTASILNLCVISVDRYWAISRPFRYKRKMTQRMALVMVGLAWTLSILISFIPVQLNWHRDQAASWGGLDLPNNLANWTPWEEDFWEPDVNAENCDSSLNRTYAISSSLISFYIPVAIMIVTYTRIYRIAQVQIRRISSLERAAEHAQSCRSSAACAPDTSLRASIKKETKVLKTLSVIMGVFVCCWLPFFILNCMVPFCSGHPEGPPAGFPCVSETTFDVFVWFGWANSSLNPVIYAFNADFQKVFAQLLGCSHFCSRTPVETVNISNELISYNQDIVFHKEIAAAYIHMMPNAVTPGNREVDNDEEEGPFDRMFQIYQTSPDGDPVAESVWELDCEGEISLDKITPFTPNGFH
pKi: −log10 of the molar value.
Recorded endpoint: pKi

Incoming: Query (compound): CCCN[C@H]1CCc2nc(N)sc2C1 [PRAMIPEXOLE] ; field requested: pKi
Outgoing: < 5.00

====

Biological target: D(3) dopamine receptor (Homo sapiens, UniProt P35462)
Sequence (P35462 whole entry): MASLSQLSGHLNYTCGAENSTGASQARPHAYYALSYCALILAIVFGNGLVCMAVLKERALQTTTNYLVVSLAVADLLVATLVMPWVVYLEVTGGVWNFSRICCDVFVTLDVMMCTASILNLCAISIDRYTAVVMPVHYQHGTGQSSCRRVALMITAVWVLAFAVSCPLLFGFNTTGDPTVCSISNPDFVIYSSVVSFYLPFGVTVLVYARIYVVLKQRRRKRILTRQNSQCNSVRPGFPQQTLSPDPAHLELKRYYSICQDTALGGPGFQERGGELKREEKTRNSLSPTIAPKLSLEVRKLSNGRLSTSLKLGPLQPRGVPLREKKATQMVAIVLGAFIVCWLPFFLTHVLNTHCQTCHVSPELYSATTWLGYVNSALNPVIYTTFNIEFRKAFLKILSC
Test: Agonist activity at human D3R expressed in CHOK1 cells assessed as induction of beta-arrestin recruitment measured after 90 mins by beta-galactosidase based PathHunter assay
Format: cell-based
Conditions: read-out: EC50
I'd be grateful if you could share measured pEC50 for these entries.
Answers are plain numbers, as −log10 of the molar value.

CSc1ccc(OCCN2CCN(C(=O)c3cc4ccccc4[nH]3)CC2)cc1
6.20
COc1ccc(OCCN2CCN(C(=O)c3cc4ccncc4[nH]3)CC2)cc1
6.09
COc1ccc(OCCN2CCN(C(=O)c3cc4c(C)cccc4[nH]3)CC2)cc1
6.58

Provide the reported pEC50 of each entry below, same order.
1. O=C(c1cc2ccccc2[nH]1)N1CCN(CCOc2ccc(OC(F)(F)F)cc2)CC1
2. O=C(c1ccc[nH]1)N1CCN(CCOc2cccnc2)CC1
3. Cc1ccc(OCCN2CCN(C(=O)c3cc4ccccc4[nH]3)CC2)cc1
4. Cn1c(C(=O)N2CCN(CCOc3cccnc3)CC2)cc2ccccc21
5. COc1ccc(OCCN2CCN(C(=O)c3ccccc3OC)CC2)cc1
6. O=C(c1cc2ncccc2[nH]1)N1CCN(CCOc2cccnc2)CC1
7. COc1ccc(C(=O)N2CCN(CCOc3ccc4c(c3)OCO4)CC2)cc1

Outgoing:
5.42
6.93
6.82
7.42
5.60
6.70
6.51

====

Target: D(2) dopamine receptor (Homo sapiens)
Sequence (P14416 whole entry): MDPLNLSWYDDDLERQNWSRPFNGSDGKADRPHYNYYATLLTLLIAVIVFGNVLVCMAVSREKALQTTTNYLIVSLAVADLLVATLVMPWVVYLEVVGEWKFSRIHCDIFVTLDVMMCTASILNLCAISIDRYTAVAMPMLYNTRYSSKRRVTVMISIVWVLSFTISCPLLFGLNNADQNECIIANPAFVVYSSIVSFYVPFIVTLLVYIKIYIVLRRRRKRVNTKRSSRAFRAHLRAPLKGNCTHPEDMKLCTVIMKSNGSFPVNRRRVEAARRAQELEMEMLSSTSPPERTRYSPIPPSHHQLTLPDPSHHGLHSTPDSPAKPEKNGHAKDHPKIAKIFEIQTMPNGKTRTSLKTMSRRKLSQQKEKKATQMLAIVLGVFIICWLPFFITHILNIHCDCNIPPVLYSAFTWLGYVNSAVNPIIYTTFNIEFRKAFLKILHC
Assay: Antagonist activity at human D2R expressed in CHOK1 cells assessed as inhibition of dopamine-induced beta-arrestin recruitment measured after 120 mins by beta-galactosidase based PathHunter assay
Assay type: cell-based
Settings: read-out: IC50
pIC50: −log10 of the molar value.
I'd be grateful if you could share measured pIC50 for these entries.

COc1ccc(OCCN2CCN(C(=O)c3[nH]c4ccccc4c3C)CC2)cc1
< 4.00

Provide the reported pIC50 of each entry below, same order.
1. CC(C)(C)c1ccc(OCCN2CCN(C(=O)c3cc4ccccc4[nH]3)CC2)cc1
2. COc1ccc(OCCN2CCN(C(=O)c3cc4ccccc4[nH]3)CC2)cc1OC
3. COc1ccc(OCCN2CCN(C(=O)c3ccc(OC)cn3)CC2)cc1
4. COc1ccc(OCCN2CCN(C(=O)c3nc4ccccc4[nH]3)CC2)cc1
5. O=C(c1cc2ccccc2[nH]1)N1CCN(CCOc2ccccc2)CC1
6. COc1ccc(C(=O)N2CCN(CCOc3ccc(OC(F)(F)F)cc3)CC2)cc1
7. COc1ccc(C(=O)N2CCN(CCOc3ccccc3)CC2)cc1

Outgoing:
1. < 4.00
2. < 4.30
3. < 4.00
4. < 4.30
5. 6.27
6. < 4.30
7. < 4.00

Provide the reported pIC50 of each entry below, same order.
1. COc1ccc(OCCN2CCN(C(=O)c3cc4cnccc4[nH]3)CC2)cc1
2. O=C(c1cc2ccccc2[nH]1)N1CCN(CCOc2ccc(F)cc2)CC1

Outgoing:
["< 4.00", 5.01]

====

Target: 5-hydroxytryptamine receptor 6 (Homo sapiens)
Sequence (P50406 whole entry): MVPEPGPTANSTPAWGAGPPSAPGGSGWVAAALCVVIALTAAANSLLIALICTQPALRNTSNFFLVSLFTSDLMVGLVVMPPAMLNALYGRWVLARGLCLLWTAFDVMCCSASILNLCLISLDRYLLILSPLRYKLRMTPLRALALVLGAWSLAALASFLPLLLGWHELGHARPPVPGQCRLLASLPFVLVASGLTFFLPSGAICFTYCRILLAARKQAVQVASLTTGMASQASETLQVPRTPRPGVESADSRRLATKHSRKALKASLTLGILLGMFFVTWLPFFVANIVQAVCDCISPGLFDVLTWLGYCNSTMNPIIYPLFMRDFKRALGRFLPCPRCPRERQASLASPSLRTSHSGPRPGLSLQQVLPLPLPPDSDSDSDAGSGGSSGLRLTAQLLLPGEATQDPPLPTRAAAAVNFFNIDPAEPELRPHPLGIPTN
Recorded endpoint: Ki

Incoming: Query (compound): CCCN[C@H]1CCc2nc(N)sc2C1 [PRAMIPEXOLE] ; field requested: Ki
Outgoing: > 10 µM

====

Target: D(2) dopamine receptor (Homo sapiens)
Assay: Antagonist activity at human D2R expressed in CHOK1 cells assessed as inhibition of dopamine-induced beta-arrestin recruitment measured after 120 mins by beta-galactosidase based PathHunter assay
Type: cell-based
Details: read-out: IC50
pIC50: −log10 of the molar value.
Recorded endpoint: pIC50

Example compounds with recorded pIC50:
COc1ccc(OCCN2CCN(C(=O)c3ccccc3OC)CC2)cc1
< 4.00
COc1ccc(OCCN2CCN(C(=O)c3cc4c(Cl)cccc4[nH]3)CC2)cc1
< 4.00
O=C(c1cc2ccccc2[nH]1)N1CCN(CCOc2ccc(Br)cc2)CC1
< 4.00
COc1ccc(OCCN2CCN(C(=O)c3cc4c(OC)cccc4[nH]3)CC2)cc1
< 4.00
COc1ccc(OCCN2CCN(C(=O)c3cc4cc(C)ccc4[nH]3)CC2)cc1
< 4.00
COc1ccc(OCCN2CCN(C(=O)c3cc4ccncc4[nH]3)CC2)cc1
< 4.00

Provide the reported pIC50 of each entry below, same order.
1. CCOc1ccc(OCCN2CCN(C(=O)c3cc4ccccc4[nH]3)CC2)cc1
2. COc1ccc(C(=O)N2CCN(CCOc3cc(OC)cc(OC)c3)CC2)cc1
3. O=C(c1ccc[nH]1)N1CCN(CCOc2cccnc2)CC1
4. CCc1ccc(OCCN2CCN(C(=O)c3ccc(OC)cc3)CC2)cc1
5. O=C(c1cc2ccccc2[nH]1)N1CCN(CCOc2ccc(Cl)cc2)CC1
6. COc1ccc(C(=O)N2CCN(CCOc3cccnc3)CC2)cc1
7. CCc1ccc(OCCN2CCN(C(=O)c3cc4ccccc4[nH]3)CC2)cc1
8. COc1ccc(OCCN2CCN(C(=O)c3ccc(OC)cc3)CC2C)cc1 (configuration not stated)

Outgoing:
1. < 4.00
2. < 4.30
3. < 4.00
4. < 4.30
5. < 4.30
6. < 4.00
7. < 4.30
8. < 4.00

Provide the reported pIC50 of each entry below, same order.
1. Cc1ccc(OCCN2CCN(C(=O)c3cc4ccccc4[nH]3)CC2)cc1
2. COc1ccc(N(C)CCN2CCN(C(=O)c3cc4ccccc4[nH]3)CC2)cc1
3. COc1ccc(OCCN2CCN(C(=O)c3cc4ccccc4n3C)CC2)cc1
4. COc1ccc(OC(C)CN2CCN(C(=O)c3ccc(OC)cc3)CC2)cc1 (configuration not stated)
5. COc1ccc(SCCN2CCN(C(=O)c3cc4ccccc4[nH]3)CC2)cc1
6. COc1ccc(OCCN2CCN(C(=O)c3cc4ccccc4o3)CC2)cc1
7. COc1ccc(C(=O)N2CCN(CCOc3ccc4c(c3)OCO4)CC2)cc1
8. COc1ccc(OCCN2CCN(C(=O)c3ccccc3)CC2)cc1

Outgoing:
1: < 4.00; 2: < 4.00; 3: 5.02; 4: 4.74; 5: < 4.00; 6: 5.11; 7: < 5.00; 8: < 4.30
